Hey, just so you know, these numbers are from paper PMC9268168.

System: RBE cell lines
MEASUREMENT_NOTES: cells
CONDITIONS: Homo sapiens, 48 h, read-out: IC50, antiproliferation activities in RBE
Catalogue of IC50 values
REPORTED_PROPERTY: IC50 (µM)

| COMPOUND_STRING | REPORTED_PROPERTY | VAL |
| --- | --- | --- |
| Cc1c(Cc2ccccc2)c(=O)oc2cc(OCCOCC(=O)N3CC([N+](=O)[O-])([N+](=O)[O-])C3)ccc12 | IC50 | 0.71 |
| Cc1c(Cc2ccc(C(F)(F)F)cc2)c(=O)oc2cc(OCCOCC(=O)N3CC([N+](=O)[O-])([N+](=O)[O-])C3)ccc12 | IC50 | 1.11 |
| Cc1c(Cc2ccc(F)cc2)c(=O)oc2cc(OCCOCC(=O)N3CC([N+](=O)[O-])([N+](=O)[O-])C3)ccc12 | IC50 | 0.89 |

* * *

| COMPOUND_STRING | melting point |
| --- | --- |
| Cc1c(Cc2ccc(C(F)(F)F)cc2)c(=O)oc2cc(OCCN3CC([N+](=O)[O-])([N+](=O)[O-])C3)ccc12 | 98 to 99.8 °C |
| Cc1c(Cc2ccccc2)c(=O)oc2cc(OCCCN3CC([N+](=O)[O-])([N+](=O)[O-])C3)ccc12 | 115.1 to 116.8 °C |
| Cc1c(Cc2ccccc2)c(=O)oc2cc(OCCN3CC([N+](=O)[O-])([N+](=O)[O-])C3)ccc12 | 173 to 175 °C |
| Cc1c(Cc2ccc(C#N)cc2)c(=O)oc2cc(OCCCCN3CC([N+](=O)[O-])([N+](=O)[O-])C3)ccc12 | 135.1 to 136.3 °C |
| Cc1c(Cc2ccc(C(F)(F)F)cc2)c(=O)oc2cc(OCCOCC(=O)N3CC([N+](=O)[O-])([N+](=O)[O-])C3)ccc12 | 65.3 to 67 °C |
| Cc1c(Cc2ccc(F)cc2)c(=O)oc2cc(OCCOCC(=O)N3CC([N+](=O)[O-])([N+](=O)[O-])C3)ccc12 | 70 to 71.9 °C |
| Cc1c(Cc2ccc(C#N)cc2)c(=O)oc2cc(OCCN3CC([N+](=O)[O-])([N+](=O)[O-])C3)ccc12 | 122.5 to 124.1 °C |

* * *

| COMPOUND_STRING | melting point |
| --- | --- |
| Cc1c(Cc2ccc(F)cc2)c(=O)oc2cc(OCCCCN3CC([N+](=O)[O-])([N+](=O)[O-])C3)ccc12 | 113.3 to 115.1 °C |
| Cc1c(Cc2ccc(F)cc2)c(=O)oc2cc(OCCN3CC([N+](=O)[O-])([N+](=O)[O-])C3)ccc12 | 137.9 to 139.2 °C |
| Cc1c(Cc2ccc(C#N)cc2)c(=O)oc2cc(OCCOCC(=O)N3CC([N+](=O)[O-])([N+](=O)[O-])C3)ccc12 | 74.9 to 76.3 °C |
| Cc1cc(=O)oc2cc(OCCN3CC([N+](=O)[O-])([N+](=O)[O-])C3)ccc12 | 91 to 93 °C |
| Cc1cc(=O)oc2cc(OCCOCC(=O)N3CC([N+](=O)[O-])([N+](=O)[O-])C3)ccc12 | 82.5 to 84.5 °C |
| Cc1c(Cc2ccccc2)c(=O)oc2cc(OCCOCC(=O)N3CC([N+](=O)[O-])([N+](=O)[O-])C3)ccc12 | 82.5 to 84.5 °C |
| Cc1cc(=O)oc2cc(OCCCCN3CC([N+](=O)[O-])([N+](=O)[O-])C3)ccc12 | 85.8 to 87.2 °C |
| Cc1cc(=O)oc2cc(OCCCN3CC([N+](=O)[O-])([N+](=O)[O-])C3)ccc12 | 78.5 to 79.6 °C |

* * *

Catalogue of pIC50 values
Tested on: RBE cell lines
MEASUREMENT_NOTES: cells
CONDITIONS: Homo sapiens, 48 h, read-out: IC50, antiproliferation activities in RBE
pIC50: −log10 of the molar value.

| COMPOUND | pIC50 |
| --- | --- |
| Cc1cc(=O)oc2cc(OCCCCN3CC([N+](=O)[O-])([N+](=O)[O-])C3)ccc12 | 5.96 |
| O=C(CBr)N1CC([N+](=O)[O-])([N+](=O)[O-])C1 [RRx-001, reference compound] | 5.70 |
| Cc1c(Cc2ccc(C#N)cc2)c(=O)oc2cc(OCCOCC(=O)N3CC([N+](=O)[O-])([N+](=O)[O-])C3)ccc12 | 6.02 |
